# ASSAY METHOD TEXT: Pharmacokinetic experiment in SD rats after gavage (LC/MS/MS plasma concentration)
# Assay type: in vivo
# RECORDED CONDITIONS: both sexes, rat, plasma; SD rats, po 5.0 mg/kg, suspension in 0.5% CMC-Na
MEASURED ENDPOINT: CL/F (mL/min/kg)
Form entry: value (mL/min/kg) — number only.

Fill in: CL/F of COc1cc(C(=O)NC2CCN(C[C@H](O)c3ccc4c(c3C)COC4=O)CC2)ncc1C#N.O=C(O)C(O)C(O)C(=O)O [Crystal form III] is ___
6.7

====

# ASSAY METHOD TEXT: Pharmacokinetic experiment in SD rats after gavage (LC/MS/MS plasma concentration)
# Assay type: in vivo
# RECORDED CONDITIONS: both sexes, rat, plasma; SD rats, po 5.0 mg/kg, suspension in 0.5% CMC-Na
MEASURED ENDPOINT: AUC(0-t) (ng·h/mL)
Form entry: value (ng·h/mL) — number only.

Fill in: AUC(0-t) of COc1cc(C(=O)NC2CCN(C[C@H](O)c3ccc4c(c3C)COC4=O)CC2)ncc1C#N.O=C(O)C(O)C(O)C(=O)O [Crystal form III] is ___
12600

Could you now consider this next molecule?
Fill in: AUC(0-t) of COc1cc(C(=O)NC2CCN(C[C@H](O)c3ccc4c(c3C)COC4=O)CC2)ncc1C#N [free state] is ___
9280

====

# ASSAY METHOD TEXT: Pharmacokinetic experiment in SD rats after gavage (LC/MS/MS plasma concentration)
# Type: in vivo
# RECORDED CONDITIONS: both sexes, rat, plasma; SD rats, po 5.0 mg/kg, suspension in 0.5% CMC-Na
MEASURED ENDPOINT: half-life (h)
Form entry: value (h) — number only.

Fill in: half-life of COc1cc(C(=O)NC2CCN(C[C@H](O)c3ccc4c(c3C)COC4=O)CC2)ncc1C#N.O=C(O)C(O)C(O)C(=O)O [Crystal form III] is ___
4.21

====

# ASSAY METHOD TEXT: Pharmacokinetic experiment in SD rats after gavage (LC/MS/MS plasma concentration)
# Format: in vivo
# RECORDED CONDITIONS: both sexes, rat, plasma; SD rats, po 5.0 mg/kg, suspension in 0.5% CMC-Na; read-out: Vz/F_obs
MEASURED ENDPOINT: Vd/F (L/kg)
Form entry: value (L/kg) — number only.

Fill in: Vd/F of COc1cc(C(=O)NC2CCN(C[C@H](O)c3ccc4c(c3C)COC4=O)CC2)ncc1C#N.O=C(O)C(O)C(O)C(=O)O [Crystal form III] is ___
2.45
